Data origin, for the record: PubChem BioAssay AID248

- System: L1210 leukemia ip in BDF1 mice, survival T/C
- Experiment Notes: NCI In Vivo Anticancer Drug Screen. Data for tumor model L1210 Leukemia (intraperitoneal) in B6D2F1 (BDF1) mice
- Conditions Used: endpoint: mean survival time; dose: 400.0 mg/kg/injection; schedule: Q01DX009 (ip); vehicle: Klucel (hydroxypropylcellulose) (HPC); higher = longer survival
Toxic doses and inconclusive results are not listed.
Measure: T/C

Worked examples follow.
{"Molecule": "COC(/C=C\\C(OC)OC)OC", "Tested System": "L1210 leukemia ip in BDF1 mice, survival T/C", "T/C": "96 % of control"}
{"Molecule": "CCCCNC(=O)Nc1ccccc1CC", "Tested System": "L1210 leukemia ip in BDF1 mice, survival T/C", "T/C": "93 % of control"}
{"Molecule": "O=S1(=O)CC(c2cccc3ccccc23)Nc2ccccc21 (configuration not stated)", "Tested System": "L1210 leukemia ip in BDF1 mice, survival T/C", "T/C": "94 % of control"}

From here, focus on the item given below.
Q: Look at this molecule and give its reported T/C. CC(=O)N(c1ccccc1)c1ccccc1
Result: 95 % of control

* * *

- Tested on: L1210 leukemia ip in BDF1 mice, survival T/C
- Experiment Notes: NCI In Vivo Anticancer Drug Screen. Data for tumor model L1210 Leukemia (intraperitoneal) in B6D2F1 (BDF1) mice
- Conditions Used: endpoint: mean survival time; dose: 100.0 mg/kg/injection; schedule: Q01DX001 (ip); vehicle: carboxymethylcellulose (CMC); higher = longer survival
Toxic doses and inconclusive results are not listed.
Measure: T/C

{"Compound": "Cc1nc2c(c(=O)[nH]1)OCN(Cc1ccccc1)C2", "Tested System": "L1210 leukemia ip in BDF1 mice, survival T/C", "Measure": "T/C", "Meas Value": "98 % of control"}
{"Compound": "NC1=NC(=O)C(c2ccccc2)(c2ccccc2)S1", "Tested System": "L1210 leukemia ip in BDF1 mice, survival T/C", "Measure": "T/C", "Meas Value": "91 % of control"}
{"Compound": "N#CCCNC(CO)C(=O)O (stereo unspecified)", "Tested System": "L1210 leukemia ip in BDF1 mice, survival T/C", "Measure": "T/C", "Meas Value": "94 % of control"}

Q: Look at this compound and give its reported T/C. OC(c1nc2ccc(Cl)cc2[nH]1)C(O)C(O)C(O)c1nc2ccc(Cl)cc2[nH]1 (stereo unspecified)
Result: 90 % of control

Q: Look at this compound and give its reported T/C. CCOC(=O)NC(NC(=O)OCC)c1ccc(Cl)cc1Cl
Result: 88 % of control

Q: Look at this compound and give its reported T/C. CCOCC(=O)C(C#N)c1ccc(Cl)c(Cl)c1 (stereo unspecified)
Result: 94 % of control

* * *

- System: L1210 leukemia ip in BDF1 mice, survival T/C
- Experiment Notes: NCI In Vivo Anticancer Drug Screen. Data for tumor model L1210 Leukemia (intraperitoneal) in B6D2F1 (BDF1) mice
- Conditions Used: endpoint: mean survival time; dose: 100.0 mg/kg/injection; schedule: Q01DX001 (ip); vehicle: Klucel (hydroxypropylcellulose) (HPC); higher = longer survival
Toxic doses and inconclusive results are not listed.
Measure: T/C

Worked examples follow.
{"Compound": "[N-]=[N+]=C1C(=O)NC(=O)NC1C(=O)O (stereo not given)", "Tested System": "L1210 leukemia ip in BDF1 mice, survival T/C", "T/C": "96 % of control"}
{"Compound": "Cc1ccc(S(=O)(=O)NCc2cccc([N+](=O)[O-])c2)cc1", "Tested System": "L1210 leukemia ip in BDF1 mice, survival T/C", "T/C": "102 % of control"}

Q: Look at this compound and give its reported T/C. Nc1ncnc2c1c(S(=O)(=O)O)cn2C1OC(CO)C(O)C1O (stereo not given)
Result: 90 % of control

Q: Look at this compound and give its reported T/C. CCCCCCCCCCCCCCCCCCN=C(Cl)Cl
Result: 88 % of control

Q: Look at this compound and give its reported T/C. CC(=O)OCc1cc(=O)n(C)c2c3c4c(cc12)c(C)cc(=O)n4CO3
Result: 109 % of control

Q: Look at this compound and give its reported T/C. Cc1ccc([N+](=O)[O-])cc1NC(=O)N(C)Cc1ccc(Cl)cc1
Result: 90 % of control

Q: Look at this compound and give its reported T/C. CC(=O)CC(=O)CC(=O)c1ccccc1
Result: 97 % of control

Q: Look at this compound and give its reported T/C. Oc1ccc(O)c(Cl)c1
Result: 94 % of control

Q: Look at this compound and give its reported T/C. Cc1ccc(-c2nnc(-c3ccccc3)n2-c2cc(C(=O)O)ccc2C)cc1
Result: 89 % of control

Q: Look at this compound and give its reported T/C. CCN(CC)/N=N/c1nc[nH]c1C(N)=O
Result: 104 % of control
